// provenance: the supplement of paper PMC7877785

Assay: self-splicing fitness, log relative to wild type (ln ratio); higher = more splicing; Tetrahymena group I intron in knt gene, E. coli kanamycin selection, DiMSum; sequences stand for … in CUCUCU…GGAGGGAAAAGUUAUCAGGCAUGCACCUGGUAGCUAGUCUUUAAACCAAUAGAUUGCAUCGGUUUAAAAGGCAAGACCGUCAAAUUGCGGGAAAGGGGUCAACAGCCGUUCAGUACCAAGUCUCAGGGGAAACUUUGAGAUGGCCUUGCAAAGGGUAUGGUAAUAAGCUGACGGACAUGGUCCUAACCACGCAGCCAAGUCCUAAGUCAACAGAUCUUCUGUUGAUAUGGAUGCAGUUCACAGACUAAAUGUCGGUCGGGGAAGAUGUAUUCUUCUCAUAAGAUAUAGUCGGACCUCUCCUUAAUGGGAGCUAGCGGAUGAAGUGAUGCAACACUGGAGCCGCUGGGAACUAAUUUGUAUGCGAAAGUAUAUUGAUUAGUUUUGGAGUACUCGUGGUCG;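 further: selection with 25 µg/mL kanamycin versus none on LB agar overnight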
Conditions: 30 °C
Classification field: 1 = self-splicing fitness (ln) at or over -2; -1 = self-splicing fitness (ln) under -2.

Reference set, count: 5
# sequence input, label class
data = [
    ("GUGGAGCAAUAUUACGAUCC", -1),
    ("CUUGAGCAAUAUUACGAAUA", -1),
    ("AAACAGCAAUAUUACGUCAC", -1),
    ("AUCCAGCAAUAUUACGGGCA", 1),
    ("UGAAAGCAAUAUUACGGCGC", 1),
]

IN: Please tell me: is the sequence `GCCCAGCAAUAUUACGCGGG` at or over -2 in terms of self-splicing fitness (ln)?
OUT: -1

IN: Param item: `CAAGAGCAAUAUUACGCCUU`
OUT: -1

IN: Again, but for `AGAUAGCAAUAUUACGCAGC`
OUT: -1

IN: Please do the same for `CCACAGCAAUAUUACGCGGC` as well.
OUT: -1

IN: // repeat for `UUUGAGCAAUAUUACGGAUG` and report
OUT: -1

IN: Also, `CUAAAGCAAUAUUACGUUAC` please.
OUT: -1

IN: Entry to check: `UUGCAGCAAUAUUACGAUGG`
OUT: 1

IN: Do the same for `ACGCAGCAAUAUUACGCGCA` please
OUT: 1

IN: Also `UUGAAGCAAUAUUACGCUCA` , if possible.
OUT: 1

IN: Please answer likewise for `UCUUAGCAAUAUUACGCGCG`
OUT: -1

IN: Same lookup for `CCCCAGCAAUAUUACGUGUU` , please.
OUT: -1

IN: Another sequence to look at: `UAACAGCAAUAUUACGAUGU`
OUT: -1

IN: What do you get for `AAAUAGCAAUAUUACGUGGA` ?
OUT: -1

IN: Subsequent entry: `UGUAAGCAAUAUUACGUAAA`
OUT: -1

IN: Another sequence to look at: `CGGCAGCAAUAUUACGGUUC`
OUT: -1

IN: What about this sequence? `UUGUAGCAAUAUUACGUGUC`
OUT: -1

IN: Repeat with `UGAUAGCAAUAUUACGAUUG`
OUT: 1
